Origin of values: patent US10227388B2

# experimental_target: HLA-A*02:01 (Homo sapiens, UniProt P04439, D140Y/D185E/D98H/E176V/E277Q/G131W/G231S/I119V/I121R/I166T/I218V/L300P/L318F/N151K/N90K/P208A/P217A/Q86G/Q94H/R138H/R169H/T345S)
# assay_text: MHC binding assay (UV-ligand exchange, ELISA, peptide exchange yield)
# assay_conditions: binding of HLA-class I restricted peptides to HLA-A*02:01
# Excerpt: Candidate peptides for T cell based therapies according to the present invention were further tested for their MHC binding capacity (affinity). The individual peptide-MHC complexes were produced by UV-ligand exchange, where a UV-sensitive peptide is cleaved upon UV-irradiation, and exchanged with the peptide of interest as analyzed. Only peptide candidates that can effectively bind and stabilize the peptide-receptive MHC molecules prevent dissociation of the MHC complexes. […]
recorded_endpoint: Peptide exchange (MHC class I binding score, peptide exchange yield)

Solved entries (count: 8):
111 (YVWGFYPAEV; listed as Homo sapiens) [compound 111] :: ″+++″ (≥50% = +++)
227 (ALMNTLLYL; listed as Homo sapiens) [compound 227] :: ″++″ (≥20% = ++)
594 (IMLKGDNITL; listed as Homo sapiens) [compound 594] :: ″+++″ (≥50% = +++)
122 (FLLAEDDIYL; listed as Homo sapiens) [compound 122] :: ″+++″ (≥50% = +++)
8 (FTLGNVVGMYL; listed as Homo sapiens) [compound 8] :: ″++++″ (≥75% = ++++)
469 (YLASDEITTV; listed as Homo sapiens) [compound 469] :: ″+++″ (≥50% = +++)
345 (VIWKALIHL; listed as Homo sapiens) [compound 345] :: ″+++″ (≥50% = +++)
462 (KLAKQPETV; listed as Homo sapiens) [compound 462] :: ″+++″ (≥50% = +++)

Exercise: Find the recorded Peptide exchange (MHC class I binding score, peptide exchange yield) belonging to 408 (VLDDSIYLV; listed as Homo sapiens) [compound 408] and report it.
Solution: ″++″ (≥20% = ++)

Exercise: Find the recorded Peptide exchange (MHC class I binding score, peptide exchange yield) belonging to 448 (NLLETKLQL; listed as Homo sapiens) [compound 448] and report it.
Solution: ″+++″ (≥50% = +++)

Exercise: Find the recorded Peptide exchange (MHC class I binding score, peptide exchange yield) belonging to 11 (KIFEMLEGV; listed as Homo sapiens) [compound 11] and report it.
Solution: ″+++″ (≥50% = +++)

Exercise: Find the recorded Peptide exchange (MHC class I binding score, peptide exchange yield) belonging to 96 (YIFTDNPAAV; listed as Homo sapiens) [compound 96] and report it.
Solution: ″+++″ (≥50% = +++)

Exercise: Find the recorded Peptide exchange (MHC class I binding score, peptide exchange yield) belonging to 10 (FLATFPLAAV; listed as Homo sapiens) [compound 10] and report it.
Solution: ″++++″ (≥75% = ++++)
